- experimental_protocol: In vivo topical administration pharmacokinetics of K173, rabbit (aqueous humor, cornea)
- experimental_conditions: aqueous humor, topical or ocular, 5 mg/ml solution, 35 L per eye, Group 3 (8 BID doses), topical 5 mg/ml, 8 hr post-last dose, OD, Mean, read-out: K173 Concentrations (ng/mL) in Rabbit Aqueous Humor OD Sample, Mean
Positions of bridges follow the written chain, without caps; N, C: chain ends. Non-standard residues stand in square brackets, D forms with d. Residues, ends and D or L forms follow the SMILES beside them. Triazole bridges read from a SMILES are 1,4-linked. *: point of attachment. Benzoyl(3,5-(OH)2) = O=C(c1cc(O)cc(O)c1)*; Lys(N3) = [N-]=[N+]=NCCCC[C@H](N)C(=O)O; dPhe(4-F) = N[C@H](Cc1ccc(F)cc1)C(=O)O; Nle = CCCC[C@H](N)C(=O)O; Pra = C#CC[C@H](N)C(=O)O
quantity_measured: level at 8 h (ng/mL)

{"columns": ["compound", "experimental_value"],
 "data": [
  ["CCCC[C@H](NC(=O)c1cc(O)cc(O)c1)C(=O)N[C@H]1CCCCn2cc(nn2)C[C@@H](C(N)=O)NC(=O)[C@H](Cc2c[nH]c3ccccc23)NC(=O)[C@H](CCCNC(=N)N)NC(=O)[C@@H](Cc2ccc(F)cc2)NC(=O)[C@H](Cc2c[nH]cn2)NC1=O [KR-072] ({Benzoyl(3,5-(OH)2)}-[Nle][Lys(N3)]H[dPhe(4-F)]RW[Pra]-NH2; triazole 2-7)", 5.92]
]}

====

- experimental_protocol: In vivo topical administration pharmacokinetics of K173, rabbit (aqueous humor, cornea)
- experimental_conditions: aqueous humor, topical or ocular, 5 mg/ml, Group 1 (single dose), topical 5 mg/ml, 4 hr post-last dose, OD, individual animals, read-out: K173 Concentrations (ng/mL) in Rabbit Aqueous Humor OD Sample
Positions of bridges follow the written chain, without caps; N, C: chain ends. Non-standard residues stand in square brackets, D forms with d. Residues, ends and D or L forms follow the SMILES beside them. Triazole bridges read from a SMILES are 1,4-linked. *: point of attachment. Benzoyl(3,5-(OH)2) = O=C(c1cc(O)cc(O)c1)*; Lys(N3) = [N-]=[N+]=NCCCC[C@H](N)C(=O)O; dPhe(4-F) = N[C@H](Cc1ccc(F)cc1)C(=O)O; Nle = CCCC[C@H](N)C(=O)O; Pra = C#CC[C@H](N)C(=O)O

{"columns": ["molecule", "level at 4 h (ng/mL)"],
 "data": [
  ["CCCC[C@H](NC(=O)c1cc(O)cc(O)c1)C(=O)N[C@H]1CCCCn2cc(nn2)C[C@@H](C(N)=O)NC(=O)[C@H](Cc2c[nH]c3ccccc23)NC(=O)[C@H](CCCNC(=N)N)NC(=O)[C@@H](Cc2ccc(F)cc2)NC(=O)[C@H](Cc2c[nH]cn2)NC1=O [KR-072] ({Benzoyl(3,5-(OH)2)}-[Nle][Lys(N3)]H[dPhe(4-F)]RW[Pra]-NH2; triazole 2-7)", 2.94]
]}

====

- experimental_protocol: In vivo topical administration pharmacokinetics of K173, rabbit (aqueous humor, cornea)
- experimental_conditions: aqueous humor, topical or ocular, 5 mg/ml, Group 2 (4 doses), topical 5 mg/ml, 24 hr post-last dose, OS, Mean, read-out: K173 Concentrations (ng/mL) in Rabbit Aqueous Humor OS Sample, Mean
Positions of bridges follow the written chain, without caps; N, C: chain ends. Non-standard residues stand in square brackets, D forms with d. Residues, ends and D or L forms follow the SMILES beside them. Triazole bridges read from a SMILES are 1,4-linked. *: point of attachment. Benzoyl(3,5-(OH)2) = O=C(c1cc(O)cc(O)c1)*; Lys(N3) = [N-]=[N+]=NCCCC[C@H](N)C(=O)O; dPhe(4-F) = N[C@H](Cc1ccc(F)cc1)C(=O)O; Nle = CCCC[C@H](N)C(=O)O; Pra = C#CC[C@H](N)C(=O)O

{"columns": ["compound", "level at 24 h, ng/mL"],
 "data": [
  ["CCCC[C@H](NC(=O)c1cc(O)cc(O)c1)C(=O)N[C@H]1CCCCn2cc(nn2)C[C@@H](C(N)=O)NC(=O)[C@H](Cc2c[nH]c3ccccc23)NC(=O)[C@H](CCCNC(=N)N)NC(=O)[C@@H](Cc2ccc(F)cc2)NC(=O)[C@H](Cc2c[nH]cn2)NC1=O [KR-072] ({Benzoyl(3,5-(OH)2)}-[Nle][Lys(N3)]H[dPhe(4-F)]RW[Pra]-NH2; triazole 2-7)", 2.33]
]}

====

- experimental_protocol: In vivo topical administration pharmacokinetics of K173, rabbit (aqueous humor, cornea)
- experimental_conditions: aqueous humor, topical or ocular, 5 mg/ml solution, 35 L per eye, Group 2 (4 doses), topical 5 mg/ml, 30 Min post-last dose, OS, Mean, read-out: K173 Concentrations (ng/mL) in Rabbit Aqueous Humor OS Sample, Mean
Positions of bridges follow the written chain, without caps; N, C: chain ends. Non-standard residues stand in square brackets, D forms with d. Residues, ends and D or L forms follow the SMILES beside them. Triazole bridges read from a SMILES are 1,4-linked. *: point of attachment. Benzoyl(3,5-(OH)2) = O=C(c1cc(O)cc(O)c1)*; Lys(N3) = [N-]=[N+]=NCCCC[C@H](N)C(=O)O; dPhe(4-F) = N[C@H](Cc1ccc(F)cc1)C(=O)O; Nle = CCCC[C@H](N)C(=O)O; Pra = C#CC[C@H](N)C(=O)O

{"columns": ["molecule", "level at 0.5 h, ng/mL"],
 "data": [
  ["CCCC[C@H](NC(=O)c1cc(O)cc(O)c1)C(=O)N[C@H]1CCCCn2cc(nn2)C[C@@H](C(N)=O)NC(=O)[C@H](Cc2c[nH]c3ccccc23)NC(=O)[C@H](CCCNC(=N)N)NC(=O)[C@@H](Cc2ccc(F)cc2)NC(=O)[C@H](Cc2c[nH]cn2)NC1=O [KR-072] ({Benzoyl(3,5-(OH)2)}-[Nle][Lys(N3)]H[dPhe(4-F)]RW[Pra]-NH2; triazole 2-7)", 3.47]
]}

====

- experimental_protocol: In vivo topical administration pharmacokinetics of K173, rabbit (aqueous humor, cornea)
- experimental_conditions: aqueous humor, topical or ocular, 5 mg/ml solution, 35 L per eye, Group 3 (8 BID doses), topical 5 mg/ml, 24 hr post-last dose, OS, Mean, read-out: K173 Concentrations (ng/mL) in Rabbit Aqueous Humor OS Sample, Mean
Positions of bridges follow the written chain, without caps; N, C: chain ends. Non-standard residues stand in square brackets, D forms with d. Residues, ends and D or L forms follow the SMILES beside them. Triazole bridges read from a SMILES are 1,4-linked. *: point of attachment. Benzoyl(3,5-(OH)2) = O=C(c1cc(O)cc(O)c1)*; Lys(N3) = [N-]=[N+]=NCCCC[C@H](N)C(=O)O; dPhe(4-F) = N[C@H](Cc1ccc(F)cc1)C(=O)O; Nle = CCCC[C@H](N)C(=O)O; Pra = C#CC[C@H](N)C(=O)O
quantity_measured: level at 24 h

{"columns": ["molecule", "experimental_value"],
 "data": [
  ["CCCC[C@H](NC(=O)c1cc(O)cc(O)c1)C(=O)N[C@H]1CCCCn2cc(nn2)C[C@@H](C(N)=O)NC(=O)[C@H](Cc2c[nH]c3ccccc23)NC(=O)[C@H](CCCNC(=N)N)NC(=O)[C@@H](Cc2ccc(F)cc2)NC(=O)[C@H](Cc2c[nH]cn2)NC1=O [KR-072] ({Benzoyl(3,5-(OH)2)}-[Nle][Lys(N3)]H[dPhe(4-F)]RW[Pra]-NH2; triazole 2-7)", "4.45 ng/mL"]
]}

====

- experimental_protocol: In vivo topical administration pharmacokinetics of K173, rabbit (aqueous humor, cornea)
- experimental_conditions: aqueous humor, topical or ocular, 5 mg/ml solution, 35 L per eye, Group 2 (4 doses), topical 5 mg/ml, 30 Min post-last dose, OD, Mean, read-out: K173 Concentrations (ng/mL) in Rabbit Aqueous Humor OD Sample, Mean
Positions of bridges follow the written chain, without caps; N, C: chain ends. Non-standard residues stand in square brackets, D forms with d. Residues, ends and D or L forms follow the SMILES beside them. Triazole bridges read from a SMILES are 1,4-linked. *: point of attachment. Benzoyl(3,5-(OH)2) = O=C(c1cc(O)cc(O)c1)*; Lys(N3) = [N-]=[N+]=NCCCC[C@H](N)C(=O)O; dPhe(4-F) = N[C@H](Cc1ccc(F)cc1)C(=O)O; Nle = CCCC[C@H](N)C(=O)O; Pra = C#CC[C@H](N)C(=O)O
quantity_measured: level at 0.5 h

{"columns": ["compound", "quantity_measured", "experimental_value"],
 "data": [
  ["CCCC[C@H](NC(=O)c1cc(O)cc(O)c1)C(=O)N[C@H]1CCCCn2cc(nn2)C[C@@H](C(N)=O)NC(=O)[C@H](Cc2c[nH]c3ccccc23)NC(=O)[C@H](CCCNC(=N)N)NC(=O)[C@@H](Cc2ccc(F)cc2)NC(=O)[C@H](Cc2c[nH]cn2)NC1=O [KR-072] ({Benzoyl(3,5-(OH)2)}-[Nle][Lys(N3)]H[dPhe(4-F)]RW[Pra]-NH2; triazole 2-7)", "level at 0.5 h", "1.9 ng/mL"]
]}
